Exercise: state measured IC50 for each of the compounds provided.
- Subject Of Test: αvβ3 integrin (Homo sapiens, UniProt P05106+P06756)
- Sequence (P06756 31-889 limits assumed): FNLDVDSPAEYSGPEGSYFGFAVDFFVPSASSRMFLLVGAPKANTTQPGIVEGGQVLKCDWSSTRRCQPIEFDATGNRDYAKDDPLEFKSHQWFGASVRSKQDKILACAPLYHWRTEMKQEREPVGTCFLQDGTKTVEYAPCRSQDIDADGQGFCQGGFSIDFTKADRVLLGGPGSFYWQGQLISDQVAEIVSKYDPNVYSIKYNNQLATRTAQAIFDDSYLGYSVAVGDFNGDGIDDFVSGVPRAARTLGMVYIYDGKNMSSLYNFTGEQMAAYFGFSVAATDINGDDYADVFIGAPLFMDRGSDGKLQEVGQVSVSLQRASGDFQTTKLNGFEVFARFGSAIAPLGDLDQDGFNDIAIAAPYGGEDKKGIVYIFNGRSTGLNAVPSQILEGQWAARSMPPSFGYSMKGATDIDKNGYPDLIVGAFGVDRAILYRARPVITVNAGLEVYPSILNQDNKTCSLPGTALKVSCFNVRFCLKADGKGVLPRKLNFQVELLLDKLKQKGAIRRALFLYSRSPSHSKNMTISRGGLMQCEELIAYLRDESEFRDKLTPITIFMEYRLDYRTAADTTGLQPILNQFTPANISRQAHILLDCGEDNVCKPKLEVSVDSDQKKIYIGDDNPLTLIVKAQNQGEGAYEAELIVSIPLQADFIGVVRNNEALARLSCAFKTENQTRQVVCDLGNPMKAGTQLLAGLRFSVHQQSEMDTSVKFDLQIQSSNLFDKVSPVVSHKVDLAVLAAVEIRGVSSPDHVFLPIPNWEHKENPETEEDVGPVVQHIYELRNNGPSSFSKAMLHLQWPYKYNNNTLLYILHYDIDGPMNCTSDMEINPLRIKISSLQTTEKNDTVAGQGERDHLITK
- Sequence (P06756 891-1048 partner limits assumed): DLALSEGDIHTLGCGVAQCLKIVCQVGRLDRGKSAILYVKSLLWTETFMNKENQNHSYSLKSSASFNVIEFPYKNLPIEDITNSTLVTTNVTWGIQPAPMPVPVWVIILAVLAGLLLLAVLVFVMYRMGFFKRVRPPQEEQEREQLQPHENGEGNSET
- Sequence (P05106 27-788): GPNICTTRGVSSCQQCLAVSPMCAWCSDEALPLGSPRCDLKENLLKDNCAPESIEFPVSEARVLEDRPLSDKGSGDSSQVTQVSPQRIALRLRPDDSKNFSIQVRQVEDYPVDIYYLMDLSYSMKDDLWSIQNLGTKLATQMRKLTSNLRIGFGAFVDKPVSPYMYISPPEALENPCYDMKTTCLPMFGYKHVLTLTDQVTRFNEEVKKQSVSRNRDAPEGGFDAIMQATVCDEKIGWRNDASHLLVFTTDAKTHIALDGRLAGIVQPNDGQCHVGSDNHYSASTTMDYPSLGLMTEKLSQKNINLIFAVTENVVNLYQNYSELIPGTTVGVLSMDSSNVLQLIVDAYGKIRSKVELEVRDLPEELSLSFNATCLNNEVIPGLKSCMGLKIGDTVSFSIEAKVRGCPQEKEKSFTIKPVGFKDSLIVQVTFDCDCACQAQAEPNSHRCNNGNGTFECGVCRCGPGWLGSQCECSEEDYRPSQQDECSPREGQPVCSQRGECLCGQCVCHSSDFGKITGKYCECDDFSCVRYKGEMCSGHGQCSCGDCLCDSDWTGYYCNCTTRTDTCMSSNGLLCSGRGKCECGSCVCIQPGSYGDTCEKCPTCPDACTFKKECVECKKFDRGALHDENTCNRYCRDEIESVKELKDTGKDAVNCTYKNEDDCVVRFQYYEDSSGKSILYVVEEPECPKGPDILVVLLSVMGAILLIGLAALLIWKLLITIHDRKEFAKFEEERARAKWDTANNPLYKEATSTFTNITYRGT
- Assay Text: Inhibition of biotinylated LXW7 binding to αvβ3-K562 cells (flow cytometry)
- Set-up: expressed in transfected cells; host or cells: K562 (gift of Dr. Yoshikazu Takada, UC Davis)
- Measurement Setup: LXW9-92: inhibiting the binding of biotinylated LXW7 against αvβ3-K562 cells; class symbols
Bridge positions count the residues as written; N and C are the ends. Square brackets hold non-standard residues; d marks the D form. Peptide text beside a SMILES is read from it. * marks the point of attachment. Isobutyryl = CC(C)C(=O)*

**Q:** Which value of IC50 has been reported for CC(C)C(=O)N[C@@H]1CSSC[C@H](C(N)=O)NC(=O)[C@@H](C(C)C)NC(=O)[C@@H](CC(=O)O)NC(=O)[C@H](CC(=O)O)NC(=O)CNC(=O)[C@H](CCCNC(=N)N)NC(=O)CNC1=O [LXW76, isobutyryl-cGRGDdvc] (Isobutyryl-[dC]GRGD[dD][dV][dC]-NH2; disulfide 1-8) in the records?
**A:** < 1000 nM

**Q:** Given the compound `N=C(N)NCCC[C@@H]1NC(=O)CNC(=O)[C@H](N)CSSC[C@H](C(N)=O)NC(=O)[C@@H](Cc2cccc3ccccc23)NC(=O)[C@@H](CC(=O)O)NC(=O)[C@H](CC(=O)O)NC(=O)CNC1=O` , what is its reported IC50?
**A:** < 1000 nM

**Q:** # IC50 lookup, item `CC(C)(C)[C@H]1NC(=O)[C@@H](CC(=O)O)NC(=O)[C@H](CC(=O)O)NC(=O)CNC(=O)[C@H](CCCNC(=N)N)NC(=O)CNC(=O)[C@H](N)CSSC[C@H](C(N)=O)NC1=O`
**A:** < 1000 nM

**Q:** Could you share which IC50 value was measured for CC(C)[C@H]1NC(=O)[C@@H](CC(=O)O)NC(=O)[C@H](CC(=O)O)NC(=O)CNC(=O)[C@H](CCCNC(=N)N)NC(=O)[C@@H](C)NC(=O)[C@H](N)CSSC[C@H](C(N)=O)NC1=O [LXW13, caRGDdvc] (H-[dC][dA]RGD[dD][dV][dC]-NH2; disulfide 1-8) ?
**A:** 1000 to 10000 nM

Parameters: items (list). Returns: IC50 for each item.
1. CC[C@H]1NC(=O)[C@@H](CC(=O)O)NC(=O)[C@H](CC(=O)O)NC(=O)CNC(=O)[C@H](CCCNC(=N)N)NC(=O)CNC(=O)[C@H](N)CSSC[C@H](C(N)=O)NC1=O
2. N=C(N)NCCC[C@@H]1NC(=O)CNC(=O)[C@H](N)CSSC[C@H](C(N)=O)NC(=O)[C@@H](Cc2csc3ccccc23)NC(=O)[C@@H](CC(=O)O)NC(=O)[C@H](CC(=O)O)NC(=O)CNC1=O
3. C#CC[C@H]1NC(=O)[C@@H](CC(=O)O)NC(=O)[C@H](CC(=O)O)NC(=O)CNC(=O)[C@H](CCCNC(=N)N)NC(=O)CN(C)C(=O)[C@H](N)CSSC[C@@H](C(N)=O)NC1=O
4. N=C(N)NCCC[C@@H]1NC(=O)CNC(=O)[C@@H](N)CSSC[C@@H](C(N)=O)NC(=O)[C@@H](Cc2cccc3ccccc23)NC(=O)[C@@H](CC(=O)O)NC(=O)[C@H](CC(=O)O)NC(=O)CNC1=O

**A:**
< 1000 nM
< 1000 nM
> 10000 nM
1000 to 10000 nM
